The values you see were collected from patent US12479858B2.

Molecular target: Human STING (Homo sapiens, UniProt Q86WV6, G230A/H232R/R293Q/R71H)
Construct: using human THP1-Blue™ ISG SEAP based reporter cell line (Invivogen); host or cells: THP1-Blue ISG cells (human monocytic THP-1 derived SEAP reporter line)
Sequence (Q86WV6 whole entry R71H/G230A/H232R/R293Q): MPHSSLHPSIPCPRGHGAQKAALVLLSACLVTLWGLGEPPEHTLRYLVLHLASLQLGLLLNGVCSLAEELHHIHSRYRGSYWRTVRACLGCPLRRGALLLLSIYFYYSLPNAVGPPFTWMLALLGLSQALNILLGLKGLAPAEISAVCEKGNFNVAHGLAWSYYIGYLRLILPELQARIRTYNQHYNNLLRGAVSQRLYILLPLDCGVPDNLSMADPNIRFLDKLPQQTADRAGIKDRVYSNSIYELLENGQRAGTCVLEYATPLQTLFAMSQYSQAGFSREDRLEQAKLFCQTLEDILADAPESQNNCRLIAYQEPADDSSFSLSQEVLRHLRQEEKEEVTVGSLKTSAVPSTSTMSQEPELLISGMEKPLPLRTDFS
Assay: Stimulation of human STING signaling in THP1 cell line (THP1-Blue ISG SEAP reporter)
Type: cell-based
Settings: THP1-Blue ISG cells, SEAP activity, 18-20 hours
pEC50: −log10 of the molar value. Structures can show the parent of a compound that is named as a salt.
Listed next: entries and their corresponding pEC50.

Look over these answered cases.
compound: CCn1nc(C)cc1C(=O)Nc1nc2cc(C(N)=O)cc3c2n1C/C=C/Cn1c(NC(=O)c2cc(C)nn2CC)nc2cc(C(=O)NCCCc4noc(=O)[nH]4)cc(c21)OCCCO3 [Compound 11]
reported: 8.00 to 9.00
--
compound: CCn1nc(C)cc1C(=O)Nc1nc2cc(C(N)=O)cc3c2n1C/C=C/Cn1c(NC(=O)c2cc(C)nn2CC)nc2cc(C(=O)NCCCn4nn[nH]c4=O)cc(c21)OCCCO3 [Compound 10]
reported: 7.00 to 7.96
--
compound: CCn1nc(C)cc1C(=O)Nc1nc2cc(C(N)=O)cc3c2n1C/C=C/Cn1c(NC(=O)c2cc(C)nn2CC)nc2cc(C(=O)NCCc4ccccc4C(=O)O)cc(c21)OCCCO3 [Compound 5, sodium salt]
reported: 8.00 to 9.00

Supply pEC50 value. Item: CCn1nc(C)cc1C(=O)Nc1nc2cc(C(N)=O)cc3c2n1C/C=C/Cn1c(NC(=O)c2cc(C)nn2CC)nc2cc(C(=O)NCCCn4cc(C(=O)O)cn4)cc(c21)OC[C@H](N1C2CCC1COC2)CO3 [Compound 19, sodium salt]
7.00 to 7.96

Supply pEC50 value. Item: CCn1nc(C)cc1C(=O)Nc1nc2cc(C(N)=O)cc3c2n1C/C=C/Cn1c(NC(=O)c2cc(C)nn2CC)nc2cc(C(=O)N[C@H]4CC[C@H](C(=O)O)CC4)cc(c21)OCCCO3 [Compound 2, sodium salt]
8.00 to 9.00

Supply pEC50 value. Item: CCn1nc(C)cc1C(=O)Nc1nc2cc(C(N)=O)cc3c2n1C/C=C/Cn1c(NC(=O)c2cc(C)nn2CC)nc2cc(C(=O)NCCCn4cc(C(=O)O)cn4)cc(c21)OCCCO3 [Compound 8, sodium salt]
8.00 to 9.00

Supply pEC50 value. Item: CCn1nc(C)cc1C(=O)Nc1nc2cc(C(N)=O)cc3c2n1C/C=C/Cn1c(NC(=O)c2cc(C)nn2CC)nc2cc(C(=O)N[C@H]4CC[C@H](c5nnn[nH]5)CC4)cc(c21)OCCCO3 [Compound 6, sodium salt]
8.00 to 9.00
